Target: norepinephrine transporter (Rattus norvegicus, UniProt Q9WTR4)
Sequence (Q9WTR4 1-597): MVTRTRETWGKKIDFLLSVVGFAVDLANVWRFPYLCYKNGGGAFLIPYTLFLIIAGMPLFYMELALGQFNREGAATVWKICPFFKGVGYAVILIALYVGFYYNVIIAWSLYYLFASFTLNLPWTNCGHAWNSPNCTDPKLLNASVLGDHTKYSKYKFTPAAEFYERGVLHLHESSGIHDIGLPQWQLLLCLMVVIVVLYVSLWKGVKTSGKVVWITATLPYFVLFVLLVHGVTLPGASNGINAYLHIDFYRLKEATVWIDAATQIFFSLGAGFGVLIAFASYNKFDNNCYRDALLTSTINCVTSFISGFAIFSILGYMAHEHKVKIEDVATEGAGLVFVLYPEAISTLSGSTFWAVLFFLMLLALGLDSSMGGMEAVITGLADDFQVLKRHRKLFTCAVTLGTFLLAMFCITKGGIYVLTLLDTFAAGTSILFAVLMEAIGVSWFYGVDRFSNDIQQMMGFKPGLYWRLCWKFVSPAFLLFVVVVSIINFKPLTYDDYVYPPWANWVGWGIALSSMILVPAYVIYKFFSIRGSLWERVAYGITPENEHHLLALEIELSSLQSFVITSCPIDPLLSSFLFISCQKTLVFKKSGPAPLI
Experiment: Norepinephrine transporter binding (NET)
pIC50: −log10 of the molar value.

| COMPOUND | BOUND OPERATOR | pIC50 |
| --- | --- | --- |
| COC(=O)[C@@H]1CN(C)CC[C@@H]1c1ccc(Cl)cc1 | = | 5.79 |
| COC(=O)C1CN(S(=O)(=O)c2ccccc2)CCC1c1ccc(Cl)cc1 (single isomer, unassigned; (-)) | < | 5.00 |
| CN1CCC(c2ccc(Cl)cc2)C(C(=O)Oc2ccccc2)C1 (single isomer, unassigned; (+)) | = | 4.25 |

====

Target: dopamine transporter (Rattus norvegicus, UniProt P23977)
Construct: from tissue; P2 synaptosomes for uptake
Sequence (P23977 whole entry): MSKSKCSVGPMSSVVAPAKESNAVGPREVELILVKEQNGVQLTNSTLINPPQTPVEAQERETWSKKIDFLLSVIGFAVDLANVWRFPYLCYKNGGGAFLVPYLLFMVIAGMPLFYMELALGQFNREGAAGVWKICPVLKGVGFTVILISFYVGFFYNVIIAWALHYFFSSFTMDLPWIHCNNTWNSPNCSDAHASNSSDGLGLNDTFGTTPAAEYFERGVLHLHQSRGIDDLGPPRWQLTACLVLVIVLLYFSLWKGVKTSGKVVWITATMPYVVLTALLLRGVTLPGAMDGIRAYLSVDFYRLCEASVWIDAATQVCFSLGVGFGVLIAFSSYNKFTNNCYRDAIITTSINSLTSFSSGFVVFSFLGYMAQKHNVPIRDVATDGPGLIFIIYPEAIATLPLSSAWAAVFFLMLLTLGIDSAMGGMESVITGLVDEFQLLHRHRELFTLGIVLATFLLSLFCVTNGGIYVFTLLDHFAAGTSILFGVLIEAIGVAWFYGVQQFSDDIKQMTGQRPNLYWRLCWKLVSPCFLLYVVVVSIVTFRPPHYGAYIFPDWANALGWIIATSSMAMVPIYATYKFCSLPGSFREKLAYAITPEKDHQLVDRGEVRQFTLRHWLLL
Assay: [3H]WIN 35,428 binding to rat striatal membranes / dopamine transporter binding (DAT)
Settings: DAT IC50 (nm), Table 2
Structures can show the parent of a compound that is named as a salt.
The following compounds are listed with their measured IC50 values.

| COMPOUND | IC50 (nM) |
| --- | --- |
| COC(=O)C1CN(Cc2ccccc2)CCC1c1ccc(Cl)cc1 (single isomer, unassigned; (-)) [Compound 47] | 917 |
| COC(=O)[C@@H]1CN(C)CC[C@@H]1c1ccc2ccccc2c1 (racemic) [Compound 74] | 13 |
| CC(=O)OCC1CN(C)CCC1c1ccc(Cl)cc1 (single isomer, unassigned; (+)) [Compound 8] | 928 |
| COC(=O)C1CN(C)CCC1c1ccc(Br)cc1 (single isomer, unassigned; (+)) [Compound 69] | 406 |
| CCc1ccc(C2CCN(C)CC2C(=O)OC)cc1I (single isomer, unassigned; (-)) [Compound 66] | 4410 |
| COC(=O)C1CN(C)CCC1c1ccc(Cl)cc1 (single isomer, unassigned; (-)) [Compound 12] | 653 |
| COC(=O)[C@@H]1CN(C)CC[C@H]1c1ccc(Cl)cc1 (racemic) [Compound 2] | 196 |
| CC(=O)OCC1CN(C)CCC1c1ccc(Cl)cc1 (single isomer, unassigned; (+)) [Compound 14] | 461 |
| COC(=O)[C@@H]1CN(C)CC[C@@H]1c1ccccc1 [Compound 10] | 797 |
| CN1CC[C@H](c2ccc(Cl)cc2)[C@H](CO)C1 [Compound 5] | 75 |
| COC(=O)C1CN(S(=O)(=O)c2ccccc2)CCC1c1ccc(Cl)cc1 (single isomer, unassigned; (-)) [Compound 46] | 26100 |
| CN1CCC(c2ccc(Cl)cc2)C(CO)C1 (single isomer, unassigned; (+)) [Compound 13] | 240 |
| COC(=O)C1(C)CN(C)CCC1c1ccc(Cl)cc1 (single isomer, unassigned; (-)) [Compound 49] | 1970 |
| CN1CCC(c2ccc(Cl)cc2)C(C(=O)Oc2ccccc2)C1 (single isomer, unassigned; (+)) [Compound 59] | 1460 |
| COC(=O)C1CN(CCCc2ccccc2)CCC1c1ccc(Cl)cc1 (single isomer, unassigned; (-)) [Compound 48] | 157 |
| CN1CCC(c2ccc(Cl)cc2)C(C(=O)Oc2ccccc2)C1 (single isomer, unassigned; (-)) [Compound 60] | 39 |
| CN1CC[C@H](c2ccc(Cl)cc2)[C@@H](CCCF)C1 [Compound 80] | 28 |
| CN1CCC(c2ccc(Cl)cc2)C(CO)C1 (single isomer, unassigned; (+)) [Compound 6] | 442 |
| COC(=O)[C@@H]1CN(C)CC[C@@H]1c1ccc(Cl)cc1 (racemic) [Compound 1] | 22 |
| CCc1ccc(C2CCN(C)CC2C(=O)OC)cc1I (single isomer, unassigned; (+)) [Compound 68] | 1420 |
| CC(=O)OC[C@@H]1CN(C)CC[C@@H]1c1ccc(Cl)cc1 [Compound 7] | 10 |
| COC(=O)C1CN(C)CCC1c1ccc2ccccc2c1 (racemic) [Compound 75] | 78 |
| CN1CC[C@H](c2ccc(Cl)cc2)[C@@H](CCCO)C1 [Compound 54] | 15 |
| COC(=O)C1CN(C)CCC1c1ccc(Br)cc1 (single isomer, unassigned; (-)) [Compound 63] | 3 |
| CN1CCC(c2ccc(Cl)cc2)C(c2nc(-c3ccccc3)no2)C1 (single isomer, unassigned; (+)) [Compound 58] | 289 |
| COC(=O)C1CN(C)CCC1c1ccc(Cl)cc1 (racemic) [1 · HCl] | 53 |

The reported numbers originate from patent US6440996B1.
